TEST TARGET: T1, Staphylokinase (full-length Sak, sakSTAR sequence) (Staphylococcus aureus, UniProt P68802 28-163)
T1 construct: also called wtSak; full Sak; not shown: His6, C-terminal, kept
T1 sequence: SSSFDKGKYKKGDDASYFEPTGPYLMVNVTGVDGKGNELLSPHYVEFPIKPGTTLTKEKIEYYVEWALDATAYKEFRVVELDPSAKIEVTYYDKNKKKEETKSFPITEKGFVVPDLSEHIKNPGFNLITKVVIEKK
METHOD NOTES: ITC + NMR titration; ITC of mCRAMP into full-length Sak repeated at 37 °C, together with the NMR titration data; not shown
MEASUREMENT PARAMETERS: both partners purified
ASSAY METRIC: Kd

[Q] Give reported Kd value for GLLRKGGEKIGEKLKKIGQKIKNFFQKLVPQPEQ (Cathelicidin-related antimicrobial peptide (CRAMP), the C-terminal peptide of the mouse cathelicidin precursor; also called mCRAMP) [Mouse cathelicidin-related antimicrobial peptide]
[A] ≥ 100 µM
